Target entity: p38α/PRAK (Homo sapiens, UniProt Q16539)
Sequence (Q16539 whole entry): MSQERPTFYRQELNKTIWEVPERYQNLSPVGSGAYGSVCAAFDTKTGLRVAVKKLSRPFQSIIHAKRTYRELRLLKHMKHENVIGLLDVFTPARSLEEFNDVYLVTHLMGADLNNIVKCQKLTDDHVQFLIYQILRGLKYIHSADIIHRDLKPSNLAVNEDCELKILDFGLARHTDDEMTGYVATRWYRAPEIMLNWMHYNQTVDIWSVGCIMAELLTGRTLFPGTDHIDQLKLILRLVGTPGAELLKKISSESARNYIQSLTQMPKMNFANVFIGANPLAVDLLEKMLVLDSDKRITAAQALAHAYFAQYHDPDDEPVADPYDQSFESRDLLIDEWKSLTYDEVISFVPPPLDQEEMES
Method description: p38α/PRAK cascade assay (phosphorylation of Hsp27 peptide, Caliper LabChip 3000)
Measurement parameters: Hsp27 peptide 1 μM, MgATP 10 μM, 30 minutes, room temperature, two values given, read-out: p38/PRAK IC50
pIC50: −log10 of the molar value.
Measured pIC50 by item
Endpoint label: pIC50

line_notation=Cc1nc(-c2cccc(N(C(N)=O)c3cc(-c4ccnc(C(C)(C)C)n4)ccc3C)n2)cs1 endpoint_label=pIC50 reported_measurement="< 4.30"
line_notation=Cc1ccc(-c2ccnc(C(C)(C)C)n2)cc1N(C(N)=O)c1ccc(C(N)=O)c(-c2ccc(F)cc2F)n1 endpoint_label=pIC50 reported_measurement="< 5.00"
line_notation=Cc1ccc(-c2ccnc(C(C)(C)C)n2)cc1N(C(N)=O)c1cccc(-c2ccc(F)cc2F)n1 endpoint_label=pIC50 reported_measurement="< 4.30"
line_notation=COC(=O)c1ccc(N(C(N)=O)c2cc(-c3ccnc(C(C)(C)C)n3)ccc2C)nc1-c1ccc(F)cc1F endpoint_label=pIC50 reported_measurement="< 5.00"
